Measured Target: T1, IL10Rα/IL2Rγ receptor (human) (UniProt Q13651)
T1 sequence (looked up) 1: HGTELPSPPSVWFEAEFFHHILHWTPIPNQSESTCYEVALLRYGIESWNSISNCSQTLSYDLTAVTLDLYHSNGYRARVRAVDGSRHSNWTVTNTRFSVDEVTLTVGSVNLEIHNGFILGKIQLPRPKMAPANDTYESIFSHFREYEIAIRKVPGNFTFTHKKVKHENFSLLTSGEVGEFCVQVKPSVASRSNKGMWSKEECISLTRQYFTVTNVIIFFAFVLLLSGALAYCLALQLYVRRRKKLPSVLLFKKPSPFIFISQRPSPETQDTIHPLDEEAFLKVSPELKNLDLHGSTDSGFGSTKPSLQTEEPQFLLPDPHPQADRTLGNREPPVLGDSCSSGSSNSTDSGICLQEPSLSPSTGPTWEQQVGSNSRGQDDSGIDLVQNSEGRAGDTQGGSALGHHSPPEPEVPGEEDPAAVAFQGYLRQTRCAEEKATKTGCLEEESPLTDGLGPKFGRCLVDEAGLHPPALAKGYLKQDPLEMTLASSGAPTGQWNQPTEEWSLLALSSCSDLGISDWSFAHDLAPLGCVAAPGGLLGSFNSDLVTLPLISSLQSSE
T1 sequence (looked up) 2: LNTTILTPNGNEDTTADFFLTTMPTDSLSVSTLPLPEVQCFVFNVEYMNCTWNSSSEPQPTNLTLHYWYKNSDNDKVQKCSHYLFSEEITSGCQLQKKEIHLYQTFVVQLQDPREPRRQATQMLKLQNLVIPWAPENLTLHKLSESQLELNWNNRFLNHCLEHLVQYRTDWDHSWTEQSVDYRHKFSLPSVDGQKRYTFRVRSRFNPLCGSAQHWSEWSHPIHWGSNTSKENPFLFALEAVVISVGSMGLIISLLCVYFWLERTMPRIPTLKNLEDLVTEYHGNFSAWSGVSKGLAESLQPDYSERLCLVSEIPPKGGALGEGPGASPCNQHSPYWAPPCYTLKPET
Test: cell-based or functional assay
Reported Metric: IFNγ secretion, CD8 T cells, at 0.0001 µM

Input line: Item under review: hIL10Ra_VHH14 - hIL2Rg_VHH19, linker GGGS, tag his (bispecific antibody, not shown: small tags and cut ends) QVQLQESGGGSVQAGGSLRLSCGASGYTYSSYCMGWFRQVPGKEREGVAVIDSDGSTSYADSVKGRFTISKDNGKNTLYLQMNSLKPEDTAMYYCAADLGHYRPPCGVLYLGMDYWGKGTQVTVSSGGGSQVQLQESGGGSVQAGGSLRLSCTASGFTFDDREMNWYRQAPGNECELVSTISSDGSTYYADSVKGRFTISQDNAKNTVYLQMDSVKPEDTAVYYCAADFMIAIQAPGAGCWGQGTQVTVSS . Reported IFNγ secretion, CD8 T cells, at 0.0001 µM?
Output line: 96800 pg/mL
